The measured values listed here are drawn from patent US20190023807A1.

- Target Or System: cynomolgus PSMA, full-length, expressed on CHO cells (cynomolgus, UniProt A0A2K5VNZ0 1-750)
- Assay Text: cell-based or functional assay
Collected His-ZAP cell killing, cyno PSMA Average EC50 values appear next to each entry.
Attribute Measured: His-ZAP cell killing, cyno PSMA Average EC50 (pM)

{"Binder": "1.18-6GS-2.1 (bispecific antibody, not shown: small tags and cut ends) EVQLLESGGGLVQPGGSLRLSCAASGFSFSSYALSWVRQAPGKGLEWVSSIGENNATTDYAASVKGRFTISRDNSKNTLYLQMNSLRVEDTAVYYCVKDGVHWGQGTLVTVSSGGGGSGGGGSGGGGSGGGGSGGGGSGGGGSEVQLVESGGGVVQPGRSLRLSCAASGFSFSGYGMHWVRQAPGKGLEWVAYISYDGSNKYYADSVKGRFTISRDNSKNTLYLQMNSLRAEDTAVYYCAKDPAWGLRLGESSSYDFDIWGQGTMVTVSS", "Meas Value": 5.8}
{"Binder": "1.11-6GS-2.1 (bispecific antibody, not shown: small tags and cut ends) EVQLLESGGGLVQPGGSLRLSCAASGFSFSSYALSWVRQAPGKGLEWVSSIGENNDTTDYADNVKGRFTISRDNSKNTLYLQMNSLRVEDTAVYYCVKDGVHWGQGTLVTVSSGGGGSGGGGSGGGGSGGGGSGGGGSGGGGSEVQLVESGGGVVQPGRSLRLSCAASGFSFSGYGMHWVRQAPGKGLEWVAYISYDGSNKYYADSVKGRFTISRDNSKNTLYLQMNSLRAEDTAVYYCAKDPAWGLRLGESSSYDFDIWGQGTMVTVSS", "Meas Value": 12}
